test system: human Hep G2 cells (ATCC HB-8065); test: Cytotoxicity in Hep G2 cells (CellTiter-Glo); type: cell-based; conditions: Hep G2 cells, 100 μM test article, 24-hour exposure
Where a name gives a salt, the structure may show the parent alone.
Property: % Cell Viability
Write the figure, then the unit, nothing else.

For COc1ccc([C@@H](C)NC(=O)c2cc(N3C[C@H]4C[C@@H]3CN4C)ccc2C)cc1-c1csc(C(=O)NC2CC2)c1 , what is its reported % Cell Viability?
43.4%

Report % Cell Viability for Cc1ccc(N2CCN(C)CC2)cc1C(=O)N[C@H](C)c1cccc(-c2ccc(N3CCNCC3)cc2)c1 [Example 73, dihydrochloride salt] please.
0.6%

Look at this compound and give its reported % Cell Viability. Cc1ccc(N2CCN(C)CC2)cc1C(=O)N[C@H](C)c1cccc(-c2ccc(N3CCN(CCC(=O)O)CC3)cc2)c1
132%

Entry Cc1ccc(N2CCN(C)CC2)cc1C(=O)N[C@H](C)c1ccc(OC(C)C)c(-c2cnn(C)c2)c1 : reported % Cell Viability = ?
93.0%

What does the record list as % Cell Viability for C[C@@H](NC(=O)c1cccc(N2CCN(C)CC2)c1)c1cccc2ccccc12 ?
20.3%

Using the record for Cc1ccc(N2CCN(C)CC2)cc1C(=O)N[C@H](C)c1cccc(-c2c(C)nn(C)c2C)c1 , report its % Cell Viability.
56.6%

Given Cc1ccc(N2CCN(C)CC2)cc1C(=O)N[C@H](C)c1cccc2c1OCO2 [Example 33, hydrochloride salt] , state its recorded % Cell Viability.
95.5%
